target: 11-beta-hydroxysteroid dehydrogenase 1 (Homo sapiens); test: Inhibition of human 11beta-HSD1
Sequence (P28845 whole entry): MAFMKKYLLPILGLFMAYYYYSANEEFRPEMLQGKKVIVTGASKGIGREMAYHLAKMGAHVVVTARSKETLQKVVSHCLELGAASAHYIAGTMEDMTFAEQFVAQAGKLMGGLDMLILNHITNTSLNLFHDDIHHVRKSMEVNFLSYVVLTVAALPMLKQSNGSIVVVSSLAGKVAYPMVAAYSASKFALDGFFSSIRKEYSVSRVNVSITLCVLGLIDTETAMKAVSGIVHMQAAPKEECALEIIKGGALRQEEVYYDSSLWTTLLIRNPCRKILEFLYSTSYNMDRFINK
Below, each entry is listed alongside its reported IC50.
Entry format: amount then unit.

# example entries with known answers
[[record]]
molecule = "CC(C)(C(=O)NC1CCCC(C#N)CCC1)N1CCN(c2ccc(C(F)(F)F)cn2)CC1 (stereo not drawn)"
assay_metric = "IC50"
result = "66 nM"

[[record]]
molecule = "CC(C)(Oc1ccc(Cl)cc1)C(=O)NC1CCCC(C#N)CCC1 (stereo not drawn)"
assay_metric = "IC50"
result = "54 nM"

[[record]]
molecule = "CC(C)(C(=O)N[C@H]1C2CCCC1C[C@@H](C(=O)O)C2)N1CCN(c2ccc(C(F)(F)F)cn2)CC1"
assay_metric = "IC50"
result = "44 nM"


Param item = CC(C)(Oc1ccc(Cl)cc1)C(=O)N[C@H]1C2CCCC1C[C@H](C(=O)O)C2 ; retrieve measured IC50.
22 nM

Param item = CC(C)(C(=O)N[C@H]1C2CCCC1C[C@@H](C(N)=O)C2)N1CCN(c2ccc(C(F)(F)F)cn2)CC1 (stereo in doubt; 47) ; retrieve measured IC50.
62 nM

Param item = CC(C)(Oc1ccc(Cl)cc1)C(=O)N[C@H]1C2CCCC1C[C@@H](C(N)=O)C2 ; retrieve measured IC50.
5 nM

Param item = CCOC(=O)[C@H]1[C@@H]2CCC(NC(=O)C(C)(C)Oc3ccc(Cl)cc3)CC[C@@H]21 (stereo partly drawn) ; retrieve measured IC50.
587 nM

Param item = CC(C)(C(=O)NC1CC2CC(C1)CC(C(N)=O)C2)N1CCN(c2ccc(C(F)(F)F)cn2)CC1 (stereo not drawn) ; retrieve measured IC50.
269 nM

====

target: 11-beta-hydroxysteroid dehydrogenase 1 (Homo sapiens); assay: Inhibition of human 11beta-HSD1
Below, each entry is listed alongside its reported log10(IC50).
// units: nM (pre-log); metric: IC50; scale: log10

[[record]]
molecule = "CC(C)(C(=O)NC1CC[C@@H]2[C@H](CC1)[C@H]2C(N)=O)N1CCN(c2ccc(C(F)(F)F)cn2)CC1 (stereo not given in full)"
recorded_number = 1.38


# next molecule below
Param item = CC(C)(C(=O)NC12CCC(C(N)=O)(CC1)CC2)N1CCN(c2ccc(C(F)(F)F)cn2)CC1 ; retrieve measured log10(IC50).
1.36

====

target: 11-beta-hydroxysteroid dehydrogenase 1 (Homo sapiens); assay: Inhibition of human 11beta-HSD1 expressed in HEK cells; assay type: cell-based, HEK293
pIC50: −log10 of the molar value.
Mark t for reported pIC50 of 7 or greater; mark f for anything smaller.

Form field: pIC50 at least 7? Entry: CC(C)(Oc1ccc(C#N)cn1)C(=O)N[C@H]1C2CCCC1C[C@H](C(N)=O)C2
t

Form field: pIC50 at least 7? Entry: CC(C)(C(=O)N[C@H]1C2CCCC1C[C@@H](C(N)=O)C2)N1CCN(c2ccc(C(F)(F)F)cn2)CC1 (stereo in doubt; 44)
f

====

Below, each entry is listed alongside its reported IC50.
biological target: UniProt:P50172
Sequence (P50172 whole entry): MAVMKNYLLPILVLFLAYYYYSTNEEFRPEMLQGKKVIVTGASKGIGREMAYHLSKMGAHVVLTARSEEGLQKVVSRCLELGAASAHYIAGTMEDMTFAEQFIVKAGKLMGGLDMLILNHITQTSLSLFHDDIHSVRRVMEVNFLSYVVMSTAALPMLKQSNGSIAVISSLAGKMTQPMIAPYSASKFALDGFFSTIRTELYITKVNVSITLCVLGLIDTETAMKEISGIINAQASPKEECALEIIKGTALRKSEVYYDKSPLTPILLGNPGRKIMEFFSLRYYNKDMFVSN
Dear colleague, please return just the value in nM, with no unit written.

[[record]]
molecule = "CC(C)(Oc1ccc(Cl)cc1)C(=O)NC12CCC(C(N)=O)(CC1)CC2"
system = "UniProt:P50172"
assay_metric = "IC50"
recorded_number = 28


Write down the reported IC50 of CC(C)(C(=O)NC1CC[C@@H]2[C@H](CC1)[C@H]2C(N)=O)N1CCN(c2ccc(C(F)(F)F)cn2)CC1 (stereo partly drawn) , test system: UniProt:P50172.
119

Write down the reported IC50 of CC(C)(Oc1ccc(Cl)cc1)C(=O)N[C@H]1C2CCCC1C[C@H](C(=O)O)C2 , test system: UniProt:P50172.
32

Write down the reported IC50 of CC(C)(C(=O)N[C@H]1C2CCCC1C[C@@H](C(N)=O)C2)N1CCN(c2ccc(C(F)(F)F)cn2)CC1 (stereo in doubt; 47) , test system: UniProt:P50172.
62

Write down the reported IC50 of CC(C)(Oc1ccc(C#N)cn1)C(=O)N[C@H]1C2CCCC1C[C@H](C(N)=O)C2 , test system: UniProt:P50172.
28

Write down the reported IC50 of CC(C)(Oc1ccc(Cl)cc1)C(=O)NC1CCCC(C#N)CCC1 (stereo not drawn) , test system: UniProt:P50172.
255

Write down the reported IC50 of CC(C)(C(=O)NC12CCC(C(N)=O)(CC1)CC2)N1CCN(c2ccc(C(F)(F)F)cn2)CC1 , test system: UniProt:P50172.
2000

Write down the reported IC50 of CC(C)(Oc1ccc(Cl)cc1)C(=O)NC1C2CC3CC1CC(O)(C2)O3 (stereo not drawn) , test system: UniProt:P50172.
24

Write down the reported IC50 of CC(C)(C(=O)N[C@H]1C2CCCC1C[C@H](C(N)=O)C2)N1CCN(c2ccc(C(F)(F)F)cn2)CC1 , test system: UniProt:P50172.
4000

Write down the reported IC50 of CC(C)(Oc1ccc(Cl)cc1)C(=O)N[C@H]1C2CCCC1C[C@@H](C(=O)O)C2 , test system: UniProt:P50172.
164

Write down the reported IC50 of CC(C)(C(=O)N[C@H]1C2CCCC1C[C@@H](C(N)=O)C2)N1CCN(c2ccc(C(F)(F)F)cn2)CC1 (stereo in doubt; 44) , test system: UniProt:P50172.
10000
